Biological target: FBW7^ARG+pCycE (Homo sapiens, UniProt Q969H0, R505L)
Construct: GST (TEV site and flexible linker) (N, cleaved yes); made in house; host or cells: SF9 insect cells (baculovirus)
Sequence (Q969H0 64-707 R505L): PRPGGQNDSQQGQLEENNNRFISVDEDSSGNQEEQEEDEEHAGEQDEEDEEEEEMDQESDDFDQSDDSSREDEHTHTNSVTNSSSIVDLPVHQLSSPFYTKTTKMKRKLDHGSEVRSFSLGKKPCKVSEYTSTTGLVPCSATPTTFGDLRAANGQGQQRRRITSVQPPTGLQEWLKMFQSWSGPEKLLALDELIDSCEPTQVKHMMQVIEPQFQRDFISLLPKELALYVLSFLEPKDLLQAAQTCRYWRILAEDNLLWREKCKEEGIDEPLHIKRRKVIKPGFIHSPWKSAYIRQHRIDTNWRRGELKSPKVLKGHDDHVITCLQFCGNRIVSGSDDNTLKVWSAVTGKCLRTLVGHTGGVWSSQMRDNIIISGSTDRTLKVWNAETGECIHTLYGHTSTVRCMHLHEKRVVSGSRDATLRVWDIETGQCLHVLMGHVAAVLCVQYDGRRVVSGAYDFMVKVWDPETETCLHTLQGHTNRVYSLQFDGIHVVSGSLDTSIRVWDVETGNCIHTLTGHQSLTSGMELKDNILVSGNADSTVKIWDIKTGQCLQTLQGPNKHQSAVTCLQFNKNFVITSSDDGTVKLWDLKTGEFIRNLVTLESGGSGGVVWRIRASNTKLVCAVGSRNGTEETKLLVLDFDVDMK
Sequence (P63208 2-163 partner): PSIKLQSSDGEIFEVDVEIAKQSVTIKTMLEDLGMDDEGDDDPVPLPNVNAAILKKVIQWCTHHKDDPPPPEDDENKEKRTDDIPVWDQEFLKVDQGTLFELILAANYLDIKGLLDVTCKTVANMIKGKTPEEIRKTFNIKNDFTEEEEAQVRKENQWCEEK
Assay: FBW7^ARG-cyclin E agonist ALPHAscreen (primary PRUN, confirmation CRUN1, dose-response DRUN)
Format: binding
Settings: DRUN dose-response, relative to WT-FBW7+pCycE; read-out: FBW7 ACT Averaged Max % Response
Description: FBW7^ARG refers to a class of loss-of-function mutations of the of FBW7 ubiquitin ligase that target a key phosphate-binding arginine residue in the FBW7 substrate-binding domain. […] ALPHAscreen is a bead-based proximity assay wherein donor beads contain a photosensitizer, phthalocyanine, and acceptor beads contain thioxene, anthracene and rubrenein in sufficient quantities to generate a chemiluminescence/fluorescence reaction (FIG. 4A). […] 6. Read ALPHAscreen on Envision […]
readoutKind: Emax (%)
Expressed in %, but write only the number.

Below, 2 molecules whose answers are already recorded.
molecule	assayTarget	unitSpec	measuredValue
COc1cccc(C=O)c1OC(=O)c1cccc(Cl)c1	FBW7^ARG+pCycE (Homo sapiens, UniProt Q969H0, R505L)	%	33.6
Cc1cccc(N2CCN(C(=O)CCc3nc(C4=CCN(C)CC4)no3)CC2C)c1 (stereo not drawn)	FBW7^ARG+pCycE (Homo sapiens, UniProt Q969H0, R505L)	%	10.2

Q) # return recorded Emax for input "COc1cc(-c2ccnc(N)n2)ccc1NC(=O)[C@H]1COc2ccccc2O1.O=C(O)C(F)(F)F"
A) 19.3

Q) Note Emax for the molecule shown: COc1ccc(COC(=O)C2=C(C)NC3=C(C(=O)CC(C)(C)C3)C2c2ccccc2)cc1 (stereo not drawn)
A) 8.75

Q) Give the measured Emax for "CCN(Cc1ccccc1)C(=O)c1cc2c(=O)n3cccc(C)c3nc2n1C"
A) 8.52

Q) Look up and report measured Emax for this entry: COc1ccccc1C1C(C(=O)OC2CCCC2)=C(C)NC2=C1C(=O)CC(c1ccccc1)C2 (stereo not drawn)
A) 10.3
